# procedureDetails: Drug transport across human Caco-2 cells
# Assay type: in vitro ADME
# experimentalParameters: human, Caco-2, pH 7.2, Caco-2 monolayers, basal-to-apical, pH 7.2, 37° C.; read-out: PEBA
readoutType: Papp B→A at 10 µM (×10⁻⁶ cm/s)

INSERT INTO measurements (molecule, measuredresult) VALUES
  ('CN1C(=O)N(c2cccc(C(F)(F)F)c2)C2=C(C(=O)CC2)C1c1ccc(C#N)cc1[S+](C)[O-] (single isomer, unassigned) [Example 30B]', 71.4),
  ('CNC(=O)N1C(=O)N(c2cccc(C(F)(F)F)c2)C2=C(C(=O)CC2)C1c1ccc(C#N)cc1OC (stereo not shown)', 68.1),
  ('CNC(=O)N1C(=O)N(c2cccc(C(F)(F)F)c2)C2=C(C(=O)CC2)[C@H]1c1ccc(C#N)cc1', 68.1),
  ('CS(=O)(=O)c1cc(C#N)ccc1[C@@H]1C2=C(CCC2=O)N(c2cccc(C(F)(F)F)c2)C(=O)N1C(=O)NC1CC1', 85.5),
  ('N#Cc1ccc([C@@H]2C3=C(CCC3=O)N(c3cccc(C(F)(F)F)c3)C(=O)N2C(=O)N[C@H]2CCC[C@@H]2O)cc1', 77.2),
  ('CCS(=O)(=O)c1cc(C#N)ccc1[C@H]1NC(=O)N(c2cccc(C(F)(F)F)c2)C2=C1C(=O)CC2 [Example 14A]', 94.8),
  ('CS(=O)(=O)c1cc(C#N)ccc1[C@H]1NC(=O)N(c2cccc(C(F)(F)F)c2)C2=C1C(=O)CC2 [Example 10A]', 57.4),
  ('N#Cc1ccc(C2C3=C(CCC3=O)N(c3cccc(C(F)(F)F)c3)C(=O)N2C(=O)N[C@@H]2CCC[C@H]2O)cc1 (stereo partly shown)', 86),
  ('CCNC(=O)N1C(=O)N(c2cccc(C(F)(F)F)c2)C2=C(C(=O)CC2)[C@H]1c1ccc(C#N)cc1S(C)(=O)=O', 84.5),
  ('CCNC(=O)N1C(=O)N(c2cccc(C(F)F)c2)C2=C(C(=O)CC2)C1c1ccc(C#N)cc1 (stereo not shown)', 80.3),
  ('CS(=O)(=O)c1cc(C#N)ccc1[C@H]1NC(=O)N(c2cccc(C(F)F)c2)C2=C1C(=O)CC2', 46),
  ('CC(C)(O)CNC(=O)N1C(=O)N(c2cccc(C(F)(F)F)c2)C2=C(C(=O)CC2)[C@H]1c1ccc(C#N)cc1 [Example 41A]', 75.1),
  ('N#CCN1C(=O)N(c2cccc(C(F)(F)F)c2)C2=C(C(=O)CC2)C1c1ccc(C#N)cc1 (stereo not shown)', 54.5),
  ('CS(=O)(=O)N1C(=O)N(c2cccc(C(F)(F)F)c2)C2=C(C(=O)CC2)[C@H]1c1ccc(C#N)cc1', 73),
  ('CS(=O)(=O)N1C(=O)N(c2cccc(C(F)(F)F)c2)C2=C(C(=O)CC2)C1c1ccc(C#N)cc1Cl (stereo not shown)', 99.8),
  ('CCOC(=O)N1C(=O)N(c2cccc(C(F)(F)F)c2)C2=C(C(=O)CC2)C1c1ccc(C#N)cc1 (stereo not shown)', 69.5),
  ('CNC(=O)N1C(=O)N(c2cccc(C(F)(F)F)c2)C2=C(C(=O)CC2)[C@H]1c1ccc(C#N)cc1F [Example 49A]', 64.8),
  ('N#Cc1ccc([C@H]2NC(=O)N(c3cccc(C(F)(F)F)c3)C3=C2C(=O)CC3)cc1', 76.4),
  ('CNC(=O)N1C(=O)N(c2cccc(C(F)(F)F)c2)C2=C(C(=O)CC2)[C@H]1c1ccc(C#N)cc1S(C)(=O)=O', 65.1),
  ('CC(C)NC(=O)N1C(=O)N(c2cccc(C(F)(F)F)c2)C2=C(C(=O)CC2)[C@H]1c1ccc(C#N)cc1S(C)(=O)=O', 86.7),
  ('COC(=O)N1C(=O)N(c2cccc(C(F)(F)F)c2)C2=C(C(=O)CC2)[C@H]1c1ccc(C#N)cc1S(C)(=O)=O', 71.2),
  ('N#Cc1ccc(C2C3=C(CCC3=O)N(c3cccc(C(F)(F)F)c3)C(=O)N2C(=O)N[C@H]2CCC[C@@H]2O)cc1 (stereo partly shown)', 78),
  ('CN1C(=O)N(c2cccc(C(F)(F)F)c2)C2=C(C(=O)CC2)C1c1ccc(C#N)cn1 (stereo not shown)', 64.2),
  ('CCS(=O)(=O)N1C(=O)N(c2cccc(C(F)(F)F)c2)C2=C(C(=O)CC2)C1c1ccc(C#N)cc1 (stereo not shown)', 73.8),
  ('CNC(=O)N1C(=O)N(c2cccc(C(F)F)c2)C2=C(C(=O)CC2)C1c1ccc(C#N)cc1 (stereo not shown)', 58.3),
  ('N#Cc1ccc([C@@H]2C3=C(CCC3=O)N(c3cccc(C(F)(F)F)c3)C(=O)N2C(=O)NCCO)cc1', 63.3),
  ('CN1C(=O)N(c2cccc(C(F)F)c2)C2=C(C(=O)CC2)[C@H]1c1ccc(C#N)cc1 [Example 26A]', 76),
  ('CN1C(=O)N(c2ccnc(C(F)(F)F)c2)C2=C(C(=O)CC2)C1c1ccc(C#N)cc1S(C)(=O)=O (stereo not shown)', 66.2);
